- ASSAY TARGET: CSF1 receptor (CSF1R) (UniProt P07333)
- Sequence (P07333 20-972 limits assumed): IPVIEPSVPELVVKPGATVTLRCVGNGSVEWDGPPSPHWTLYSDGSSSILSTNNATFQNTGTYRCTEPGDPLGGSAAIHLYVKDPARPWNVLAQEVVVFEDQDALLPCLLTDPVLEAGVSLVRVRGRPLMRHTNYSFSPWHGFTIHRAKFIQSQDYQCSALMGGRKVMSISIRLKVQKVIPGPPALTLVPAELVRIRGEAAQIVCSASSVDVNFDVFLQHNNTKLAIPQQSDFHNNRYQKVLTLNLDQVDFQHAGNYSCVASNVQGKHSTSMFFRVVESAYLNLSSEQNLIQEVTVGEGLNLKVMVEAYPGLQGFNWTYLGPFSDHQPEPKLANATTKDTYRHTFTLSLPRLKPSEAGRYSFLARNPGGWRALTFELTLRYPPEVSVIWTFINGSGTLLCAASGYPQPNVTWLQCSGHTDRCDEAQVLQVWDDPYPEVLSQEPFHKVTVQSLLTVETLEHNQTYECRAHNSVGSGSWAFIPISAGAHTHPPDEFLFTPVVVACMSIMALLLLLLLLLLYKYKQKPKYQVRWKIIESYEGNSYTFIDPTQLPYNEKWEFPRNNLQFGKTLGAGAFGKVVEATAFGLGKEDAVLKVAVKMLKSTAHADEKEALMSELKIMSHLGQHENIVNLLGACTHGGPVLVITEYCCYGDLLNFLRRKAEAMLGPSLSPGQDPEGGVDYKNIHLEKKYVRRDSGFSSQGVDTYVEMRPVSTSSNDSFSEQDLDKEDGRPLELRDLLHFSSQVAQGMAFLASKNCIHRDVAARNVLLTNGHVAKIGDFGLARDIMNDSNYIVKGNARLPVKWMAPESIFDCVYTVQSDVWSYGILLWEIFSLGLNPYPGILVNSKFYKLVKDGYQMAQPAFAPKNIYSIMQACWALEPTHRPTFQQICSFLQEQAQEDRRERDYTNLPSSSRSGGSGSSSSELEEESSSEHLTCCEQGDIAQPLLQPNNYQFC
- ASSAY REMARKS: cell-based or functional assay
Please provide measured EC50, HEK293 CSF1R/SRE reporter, biological replica 2 for the entries that follow.
Hey, just send me the number, nothing else.

Find the recorded EC50, HEK293 CSF1R/SRE reporter, biological replica 2 belonging to CSF1 Q81F (ligand) EEVSEYCSHMIGSGHLQSLQRLIDSQMETSCQITFEFVDQEQLKDPVCYLKKAFLLVQDIMEDTMRFRDNTPNAIAIVQLFELSLRLKSCFTKDYEEHDKACVRTFYETPLQLLEKVKNVFNETKNLLDKDWNIFSKNCNNSFAECSSQD and report it. 6.77e-08

Another binder to check: CSF1 Q79L (ligand) EEVSEYCSHMIGSGHLQSLQRLIDSQMETSCQITFEFVDQEQLKDPVCYLKKAFLLVQDIMEDTMRFRDNTPNAIAIVLLQELSLRLKSCFTKDYEEHDKACVRTFYETPLQLLEKVKNVFNETKNLLDKDWNIFSKNCNNSFAECSSQD 1.28e-08

Another binder to check: CSF1 V78W (ligand) EEVSEYCSHMIGSGHLQSLQRLIDSQMETSCQITFEFVDQEQLKDPVCYLKKAFLLVQDIMEDTMRFRDNTPNAIAIWQLQELSLRLKSCFTKDYEEHDKACVRTFYETPLQLLEKVKNVFNETKNLLDKDWNIFSKNCNNSFAECSSQD 2.1e-08
